Assay: folding stability dG unfold from chymotrypsin proteolysis; higher = more stable
VALUE_TYPE: folding stability dG unfold (kcal/mol)

| SEQ_TEXT | UNIT_SPEC | RESULT |
| --- | --- | --- |
| SAGGSIWIPIDSPEDVEEAIDFIQDFLAERGMPPGHDIKKIKVERMENGHYWVEIEFPGRKIYIWVSAGGSA [r2_120_TrROS] | kcal/mol | 4.02 |
| SAGGSAGGSAEKVITVWIPLPPGQGVDEIAKEIARYLGFPNIKIDNIQYDPEDGWYQITFKLSAGGSAGGSA [r18_481_TrROS] | kcal/mol | 4.16 |
| SAGGSAGGSRLDATRALLDKLPPGSVTVTVYVNGKPVTFRFGSREEIEEAIEANPDVEVEIEPASAGGSAGG [r6_421_TrMRF] | kcal/mol | 1.74 |
| SAGGSAGGSAGKKKVLILGGDAVATAKELKKLGEDVEVEVLESGEDLEEHLKNYDLVLSGSAGGSAGGSAGG [r17_225_TrMRF] | kcal/mol | 0.344 |
| SAGGSAGGSAGGAEELLENGRLRIEWPNGRTHTIDLDDGKIEPPPGFPPDNIRRVEIVPPSAGGSAGGSAGG [r7_566_TrROS] | kcal/mol | 0.444 |
| SAGGSAGGSAGMTLRLKIRVYDPETREEVEEKEIEVELPPGASLEELLAALPPEQVEVEFSAGGSAGGSAGG [r17_339_TrROS_Hall] | kcal/mol | 1.1 |
| SAGGSAGGSAMITIKVSPDVPVPSNTPITLPNGKKVKATVTPVPSPEDGTPVLKITLDPNLISAGGSAGGSA [r18_476_JUSTAS] | kcal/mol | 0.891 |
| SMKPGDVKVIEIEVEYPWPPGDPEKAKEKVRDLVNSIMQEHGYDVDIPVEIEPRDGRYRVEVPIIIRPPNSA [r9_889_TrROS] | kcal/mol | -0.771 |
| SKKKKKKTIKIKITIKVEKEVKIRIIYNGKEKEITIKPGETKTIEITFPAGKVIIEIYKDGKPIKKIEIKSA [r9_411_TrROS_Hall] | kcal/mol | 3 |
| SAGGSAGGSAGPKVVLVPVKVVQKLLGVKIPENSRVLVLLEKDKVKAVLVFPVLPSPENPSAGGSAGGSAGG [r11_616_TrMRF] | kcal/mol | 1.55 |
| SAKKIKIKEITITVEKNKDGSYTITITVDGKKIAELTFKTPEEAEKAAEELAKELAKKLNVDKIEIKPTSAG [r14_791_TrROS_Hall] | kcal/mol | 2.69 |
| SSPIMIKMKDPDDREKIEKAVEEINDETGMSIRPESVDPNGKYTFMINMPPEHQKKILKALREAGNIEIVSA [r9_472_TrROS] | kcal/mol | 1.1 |
| SAGGSATLKEIAKEIEKTVKPKYAKKLAKTIEEAVKKGYEIKKIIIEKPKDDSFKATIYLKKPNDPSAGGSA [r15_613_TrMRF] | kcal/mol | 0.294 |
| SAGSPATLRAQAEEEARALAAELGAEVTVDVTVEPVPGEYVVRTTATLTFPGGEVRTLPRTTRVPRSLVSAG [r5_609_JUSTAS] | kcal/mol | 1.09 |
| SAYKITIKITITDPVTGETTTITVELISSEEEAKKEAEKLAASYPGKKVTIDLVEVVPVPPLSEEELKLSSA [r9_421_JUSTAS] | kcal/mol | 2.68 |
| SAGGSAMVTPEERVEAALAYIRGKYGFPLSATPAQLREAGLPVRVELTVTDADGRPLATVTLEIPGSAGGSA [r15_391_TrMRF] | kcal/mol | 1.78 |
| SAGGSAGGSAGGLEIELPNARIRIEELEGEPRRIRVRVEFFPPDGGRLSAEAEFDILPDLSAGGSAGGSAGG [r17_184_TrMRF] | kcal/mol | 2.5 |
| SAGGSAGGSAGGMIIKINGKYYKIKKIEKNPNGKYTITTENGKKYEFKNVKIFSEEELKSAGGSAGGSAGGS [r10_1151_TrROS_Hall] | kcal/mol | 4.19 |
| SAGGSAGGMTLTLELTLENGKKVRIEVEVNENGSLKVKITYPNGKKVEIEVNMSLEELLKKLLSSAGGSAGG [r6_808_TrROS_Hall] | kcal/mol | 3.66 |
| SAGGSAGGRFTVQFRVPGTLEEAREKAEEIAENLPPNFKDVEVDIEPHPKNGWIRVEVQIKMKKSAGGSAGG [r6_164_TrROS] | kcal/mol | 1.07 |
| SAGGSQEELAKQLAEELAKKEGLKEVKVSITPSPGPVLNITFEFYDENGNKKGVKSKTIPLPPDLLSAGGSA [r2_153_JUSTAS] | kcal/mol | 0.0811 |
| SAGGMITLTLPIPAEFLEKHGLDEAKKIVLEKAKEELKKLGLSEKYPIKKIEITPEPESLTATIVILSAGGS [r16_368_JUSTAS] | kcal/mol | 1.95 |
| SAGGSIKVFESESTDPATGKVTTTTTTVTESSEEPTPEAAKNTPPGETTTTTTTTTTTSPVPPGTAASAGGS [r8_274_JUSTAS] | kcal/mol | 0.67 |
| SAGGSKMEIVKYDKEKNVIYVRVDGKTYTFPLDEITEVTFDEETGELTIKVNGKTYTIKLDLPDLVSAGGSA [r2_48_TrROS_Hall] | kcal/mol | 4.29 |
| SAGGSAGGSAGGEIEVKEGEVVLVRLPDGTLLLYDKNTRRLYRFRFKDGKLEVEELELPESAGGSAGGSAGG [r7_527_TrROS_Hall] | kcal/mol | 4.36 |
| SAGGSAKPDLVRTGPLLLPTAVVLPSVHFADPDVSVSLFRTPNGPPYLALAFIDPETGEPHIVLFPSAGGSA [r15_84_TrMRF] | kcal/mol | 1.71 |
| AVTVTVEPVGDALVVTVDLPRADGSPVRVVALFDPDGTVARVLVARSDPGPPRFVEVPAAPASDPVLLAAGS [r1_301_TrMRF] | kcal/mol | 1.38 |

* * *

Test: folding stability dG unfold from chymotrypsin proteolysis; higher = more stable
Recorded folding stability dG unfold for the following sequences

| SEQ_TEXT | UNIT_SPEC | folding stability dG unfold |
| --- | --- | --- |
| SAGGSMKVKIEVEKTPKGYKVRITVEKDGKTYEFEFPEDMSLEEVLEKLKKELEKEGVEIEKIEIVSAGGSA [r2_497_TrROS_Hall] | kJ/mol | 19.2 |
| SAGGSAGGSAGSMDSLPMPQVTPKVVELNVPPEEAEKLKKELGAKEIKFSPEGKLIIYLESAGGSAGGSAGG [r11_64_JUSTAS] | kJ/mol | -1.48 |
| SAGGSAGGSAGPGVLILRRRFVRPRLIPNTGKLYYEEVELTTNLPIGPIPPNWLNNPNGVSAGGSAGGSAGG [r17_493_TrMRF] | kJ/mol | 0.229 |
| SAGGSAGGSAGGGKPVKVIVVEVGGKKVLVTFDEDTGKLTVYNLDTGKTETVTVSPEDLSAGGSAGGSAGGS [r10_669_TrROS_Hall] | kJ/mol | 6.97 |
| SAGGDKLGKPLGGKPVTFDISKEELSYNPSNGTWSKSVVTTPRTVFYPPDAEPDPAVFASGAGSVTLASAGG [r13_753_JUSTAS] | kJ/mol | 1.18 |
| SASLEELLAELPFDAEVETKDEEVVVKITNPENPDPNVSYTFNIPSSSGVPITVNVTEVEGGTKSVKALSAG [r14_401_JUSTAS] | kJ/mol | -0.451 |
| SAGGSADIARKIAKWLAEMYGIEEIKVKDIDPNGYIKVEIKMRMYDDGEPVEHKMDIEIPIPPGDLSAGGSA [r15_646_TrROS] | kJ/mol | 9.63 |
| SAGGKNDVKTKTYEIEKDGGKITIEFEKLPDGKYKATVTYPDGKKETLVFDLGEGKEEEFAKEIAKKKSAGG [r13_296_TrMRF] | kJ/mol | 12.8 |
| SAGGSAGGSAGGKKVKITVVLEFDGVLLVAEAEIEFDENGKIVEIKVKVELFPAPEEGEESAGGSAGGSAGG [r7_135_TrROS_Hall] | kJ/mol | 9.99 |
| SAGGSAGGSMKVVKILSIETKAEKDEEVLTIPVLDPANGKVITLTVSPEVAKTITTDDEIELLSAGGSAGGS [r12_382_JUSTAS] | kJ/mol | 2.16 |
| SAGGSAGGSEEVEIRIVLPDMSEEELKAALEALLSEPGAEIEIVRVERREDGSLVVTVKVRVPSAGGSAGGS [r12_348_TrROS_Hall] | kJ/mol | 12.1 |
| SAGGEKIEELLKELLEKLEIKPGEKVEIEIEFELEDGYRIKLKITVTYNEETGEVEIKVEIVEIEKVSAGGS [r16_634_TrROS_Hall] | kJ/mol | 18.4 |
| SAGGKKTFKVTLTLELKVERDEETGELKTETLTLTLTIEAESEEEAEKALKELLEKLELSPELKKALSAGGS [r16_40_TrROS_Hall] | kJ/mol | 15.7 |
| SAGGSAKKVIVIEVKPGEKITITINGKKVEIVEVKPEGETFLIRNKDTGEIYKITVVDGKVVIEKLSAGGSA [r15_235_TrROS_Hall] | kJ/mol | 17.9 |
